Measured values drawn from PubChem BioAssay (NCATS) for this set.

assay: Quantitative High-Throughput drug screen in 47 multiple myeloma cell lines against the NCATS MIPE library collection: PE2_PLB cell viability assay (AID 1919869); conditions: PE2_PLB myeloma cells viability, ATP luminescence, 48 h; series mostly up to 45.8 µM; also: nearly all actives have a fitted effect of over 35% in size
Inconclusive results are not listed. Activity calls are given as the source filed them. Calls follow the shape of the dose curve; as a rule, active = well fitted cell-killing curve with a large enough effect; inconclusive = small, poorly fitted or top-dose-only effect, or effect the other way; inactive = no such curve, though single readings can be large or run the other way.
# output must be one of 1 = active, 0 = inactive

Worked set:
>>> label("COc1cc2c(Oc3ccc(-c4cnc(Nc5ccc(F)cc5)n(C)c4=O)cc3F)ccnc2cc1OCCCN1CCOCC1")
1
>>> label("CCN(CC)CCCCNc1ncc2cc(-c3cc(OC)cc(OC)c3)c(NC(=O)NC(C)(C)C)nc2n1")
1
>>> label("NC(=O)Nc1cc(-c2cccc(F)c2)sc1C(=O)N[C@H]1CCCNC1")
1
>>> label("c1cc(-c2cnn3cc(-c4ccc(OCCN5CCCCC5)cc4)cnc23)ccn1")
1

[ask] So what was the verdict on O=C(c1cncc(Br)c1)N1CCC(N2CCCC2)CC1 in this test?
[reply] 0

[ask] So what was the verdict on Cc1ccc(C(=O)Nc2cccc(C(F)(F)F)c2)cc1-c1ccc2nc(NCCN3CCOCC3)ncc2c1 in this test?
[reply] 1

[ask] So what was the verdict on Cc1c(C)n(Cc2ccc(-c3ccccc3C(=O)O)cc2)c2ccc(C(=O)N[C@@H](C)c3ccc([N+](=O)[O-])cc3)cc12 in this test?
[reply] 1

[ask] So what was the verdict on COc1ccc(-n2nc(C(N)=O)c3c2C(=O)N(c2ccc(N4CCCCC4=O)cc2)CC3)cc1 in this test?
[reply] 0

[ask] So what was the verdict on Cc1[nH]c2ccccc2c1CCNCc1ccc(C=CC(=O)NO)cc1 in this test?
[reply] 1
